# target.or.test.system: T1, NHis-Purβ I-II-III (Mus musculus, UniProt O35295 41-303)
# T1 sequence: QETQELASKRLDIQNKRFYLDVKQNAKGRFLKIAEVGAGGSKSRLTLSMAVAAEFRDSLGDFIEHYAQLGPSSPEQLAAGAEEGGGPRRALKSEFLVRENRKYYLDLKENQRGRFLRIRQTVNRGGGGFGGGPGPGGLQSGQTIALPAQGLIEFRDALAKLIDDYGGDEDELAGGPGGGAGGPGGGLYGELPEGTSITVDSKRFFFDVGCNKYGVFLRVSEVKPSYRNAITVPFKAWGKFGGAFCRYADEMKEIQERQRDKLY
# assay.explanation: competition
assay.metric: IC50 (nM)
One number for each entry, in nM.

Exercise: Specify reported IC50 for the binder shown: GGGAGCAGAACAGAGGAATGCAGTGGAAGAGA (ssDNA) [PE32-bF]
Key: 1
